Please respond with reported microsomal CLint at 1 μM for every item in the list.
Assay: Metabolic Stability Study, liver microsome incubation (mouse)
Type: in vitro ADME
Details: mouse liver microsomes 0.5 mg/mL, 1 μM compound, NADPH; read-out: CLint (μL × min^−1 × mg^−1) mouse

Inquiry: Entry COc1cc(CN2CCN(C3CC4(C3)CN(c3ccc(C(=O)NS(=O)(=O)c5ccc(NC[C@H]6CC[C@](C)(O)CC6)c([N+](=O)[O-])c5)c(Oc5cnc6[nH]cc(F)c6c5)c3)C4)[C@H](c3ccccc3C(C)C)C2)ccc1N1CCOCC1 [Example 361] needs its microsomal CLint at 1 μM filled in; supply it.
Reply text: 5.1 µL/min/mg

Inquiry: Report microsomal CLint at 1 μM for CC(C)c1ccccc1C1CN(Cc2ccc(F)cc2)CCN1C1CC2(CCN(c3ccc(C(=O)NS(=O)(=O)c4ccc(NC[C@H]5CC[C@](C)(O)CC5)c([N+](=O)[O-])c4)c(Oc4cnc5[nH]ccc5c4)c3)CC2)C1 (stereo partly drawn) [Example 28]
Reply text: 6.9 µL/min/mg

Inquiry: Determine its reported microsomal CLint at 1 μM: CC(C)c1ccccc1C1CN(Cc2ccc(Cl)cc2)CCN1C1CC2(CCN(c3ccc(C(=O)NS(=O)(=O)c4ccc(NC[C@H]5CC[C@](C)(O)CC5)c([N+](=O)[O-])c4)c(Oc4cnc5[nH]ccc5c4)c3)CC2)C1 (stereo partly drawn) [Example 29]
Reply text: 0.6 µL/min/mg

Inquiry: State its microsomal CLint at 1 μM for this compound: CC(C)c1ccccc1C1CN(Cc2ccc(C(F)(F)F)cc2)CCN1C1CC2(CCN(c3ccc(C(=O)NS(=O)(=O)c4ccc(NC[C@H]5CC[C@](C)(O)CC5)c([N+](=O)[O-])c4)c(Oc4cnc5[nH]ccc5c4)c3)CC2)C1 (stereo partly drawn) [Example 41]
Reply text: 2 µL/min/mg

Inquiry: Provide measured microsomal CLint at 1 μM value, entry: COc1ccc(CN2CCN(C3CC4(CCN(c5ccc(C(=O)NS(=O)(=O)c6ccc(NC[C@H]7CC[C@](C)(O)CC7)c([N+](=O)[O-])c6)c(Oc6cnc7[nH]ccc7c6)c5)CC4)C3)[C@H](c3ccccc3C(C)C)C2)cc1 [Example 19a]
Reply text: 4 µL/min/mg

Inquiry: Supply measured microsomal CLint at 1 μM of COc1ccc(CN2CCN(C3CC4(C3)CN(c3ccc(C(=O)NS(=O)(=O)c5ccc(NC[C@H]6CC[C@](C)(O)CC6)c([N+](=O)[O-])c5)c(Oc5cnc6[nH]ccc6c5)c3)C4)[C@H](c3ccccc3C(C)C)C2)cc1 [Example 147] in your reply.
Reply text: 4.6 µL/min/mg

Inquiry: For the compound COc1cc(CN2CCN(C3CC4(CCN(c5ccc(C(=O)NS(=O)(=O)c6ccc(NC[C@H]7CC[C@](C)(O)CC7)c([N+](=O)[O-])c6)c(Oc6cnc7[nH]cc(F)c7c6)c5)CC4)C3)[C@H](c3ccccc3C(C)C)C2)cc2c1OCC2(C)C [Example 285] , give its reported microsomal CLint at 1 μM.
Reply text: 7.8 µL/min/mg

Inquiry: Please look at this compound and report its microsomal CLint at 1 μM: COc1ccc(CN2CCN(C3CC4(CCN(c5ccc(C(=O)NS(=O)(=O)c6ccc(NC[C@H]7COCCO7)c([N+](=O)[O-])c6)c(Oc6cnc7[nH]ccc7c6)c5)CC4)C3)[C@H](c3ccccc3C(C)C)C2)cc1 (single isomer, unassigned) [Example 33]
Reply text: 5.9 µL/min/mg

Inquiry: Using the record for CC(C)c1ccccc1C1CN(Cc2cc(F)cc(F)c2)CCN1C1CC2(CCN(c3ccc(C(=O)NS(=O)(=O)c4ccc(NC[C@H]5CC[C@](C)(O)CC5)c([N+](=O)[O-])c4)c(Oc4cnc5[nH]ccc5c4)c3)CC2)C1 (stereo partly drawn) [Example 51] , state its measured microsomal CLint at 1 μM.
Reply text: 4.5 µL/min/mg
